Values compiled from PubChem BioAssay (NCI).

- System: EKVX NSCLC
- ASSAY DETAILS: NCI tumour cell line growth inhibition, 48 h; in the data active = GI50 below about 0.43 µM; inactive = the rest
Form entry, call: pick from 1 for active, -1 for inactive

>>> category_label("Nc1cc(N)c(N)cc1N")
-1
>>> category_label("CC(=O)Nc1ccc2c(c1)oc(=O)c1cc(NC(C)=O)ccc12")
-1
>>> category_label("CC(=O)OCC1OC(n2ccc(=O)[nH]c2=O)C(OC(C)=O)C1OC(C)=O (stereo unspecified)")
-1

Query string: Outcome? `C[C@H]1[C@H](C)CC[C@]2(C(=O)O)CC[C@]3(C)C(=CC[C@@H]4[C@@]5(C)C/C(=C/c6cccnc6)[C@H](O)C(C)(C)[C@@H]5CC[C@]43C)[C@H]12`
Result string: -1

Query string: Short answer needed: outcome of this test for `Fc1cccc(COc2ccc(Nc3ncnc4cc(-c5ccc[nH]5)sc34)cc2Cl)c1` ?
Result string: 1

Query string: Could you kindly confirm the outcome this assay logged for `Cn1ccnc1C(=O)/C=C/c1ccc(CC(=O)Nc2ccccc2)cc1` ?
Result string: -1

###

- Tested on: CAKI-1 renal
- ASSAY DETAILS: NCI tumour cell line growth inhibition, 48 h; in the data active = GI50 below about 0.43 µM; inactive = the rest
Answer with one of the outcomes Y = active, N = inactive

>>> category_label("C[C@@H]1CN(CC(=O)N2CC(C)(C)c3nc(CO)c(Cc4ccc(F)cc4)cc32)[C@@H](CN2CCOC[C@H]2C)CN1")
"N"

Query string: Fill in: this test's call for `CC[C@H](CC#N)OC(=O)N[C@@H](C)c1cccc(NC(=O)Nc2ccc(-c3cnco3)c(OC)c2)c1` is ___
Result string: Y

###

- System: SK-MEL-28 melanoma
- ASSAY DETAILS: NCI tumour cell line growth inhibition, 48 h
MEASURE NAME: GI50

// known answers, use as guide
>>> result("CO/N=C(\\C)c1ccc(Nc2cc(-c3ccccc3)nc3c(O)cccc23)cc1")
"25.5 µM"
>>> result("ClCc1c(Cl)c(Cl)c(Cl)c(CCl)c1Cl")
"1.95 µM"
>>> result("CN(C)c1ccc2cc(-c3ccccc3F)c(N)nc2c1")
"2.57 µM"
>>> result("Clc1nc(Cl)c2c(ncn2C/C=C\\Cn2cnc3c(Cl)nc(Cl)nc32)n1")
"1.66 µM"
>>> result("C[C@H]1[C@H](C)CC[C@]2(C(=O)O)CC[C@]3(C)C(=CC[C@@H]4[C@@]5(C)C/C(=C/c6cccnc6)[C@H](O)C(C)(C)[C@@H]5CC[C@]43C)[C@H]12")
"13.7 µM"

Query string: Please indicate recorded GI50 of `O=C1C(Cl)=C(Nc2cccc(O)c2)C(=O)N1c1cc(Cl)c(Cl)cc1Cl` measured with SK-MEL-28 melanoma.
Result string: 18.5 µM

###

- System: TK-10 renal
- ASSAY DETAILS: NCI tumour cell line growth inhibition, 48 h
MEASURE NAME: TGI

>>> result("CCOC(=O)C(NC(=O)Nc1ccc(Cl)c(Cl)c1)C(F)(F)F (stereo not given)")
"> 100 µM"
>>> result("CCC(CCCC[C@@H]1CC[C@H]2CC(=O)C[C@@H]12)OC (stereo not given in full)")
"> 100 µM"
>>> result("Cn1nc(-c2ccccc2)c(C(=O)/C=C/c2ccccc2)c(N2CCOCC2)c1=O")
"89.4 µM"
>>> result("C=CC[C@H](C)CCC(=O)N1[C@H]2CC3CC[C@@]2(CS1(=O)=O)C3(C)C")
"> 100 µM"
>>> result("CCOP(=O)(OCC)C(NC(c1ccccc1)c1ccccc1)c1cccc2ccccc12 (stereo not given)")
"29.4 µM"
>>> result("CCO/N=[N+](\\[O-])N(CC)CC")
"> 100 µM"

Next up:
Query string: Answer with the recorded TGI of `CSc1ccc(/C=C2\N=C(c3ccccc3)N(c3nc4ccc(Sc5ccccc5)cc4[nH]3)C2=O)cc1` only.
Result string: 60.8 µM

###

- Tested on: HCT-15 colon
- ASSAY DETAILS: NCI tumour cell line growth inhibition, 48 h; in the data active = GI50 below about 0.43 µM; inactive = the rest
Permitted responses: active, inactive

>>> category_label("Oc1ccc(CCCCCCc2ccc(O)cc2)cc1")
"inactive"
>>> category_label("CO/N=C(\\C)c1ccc(Nc2cc(-c3ccccc3)nc3c(O)cccc23)cc1")
"inactive"

Query string: // outcome(item) with item = `CN(CCOc1ccc(C#N)cc1)CCOc1ccc(C#N)cc1`
Result string: inactive

Query string: For `CCCCN(Cc1ccc(F)cc1)c1ccc(CO)c(Cl)c1` , what call appears in the results of this test?
Result string: inactive

Query string: Please indicate how the test categorized CC(=O)OCC1OC(n2ccc(=O)[nH]c2=O)C(OC(C)=O)C1OC(C)=O (configuration not stated) .
Result string: inactive

Query string: Assay outcome for C[C@@H]1COCCN1c1cc(C2(S(C)(=N)=O)CC2)nc(-c2ccnc3[nH]ccc23)n1 (some centres not stated) : what was it?
Result string: inactive

Query string: Hi team, can someone confirm the assay call for `O=C(CCl)N1c2ccccc2Sc2c1ccc1ccccc21` ?
Result string: inactive

Query string: Hello, I am checking results. What call was entered for CC(=O)O[C@@H]1CC2C(C)(C)CCCC2(C)C2=C1C(=O)C(C(C)C)=CC2=O (some centres not stated) ?
Result string: inactive

Query string: Recorded call for `COc1ccc(-c2cn(-c3ccccc3)c(-c3ccccc3)n2)cc1OC` ?
Result string: inactive

###

The entries below are paired with their reported TGI.
- System: RXF 393 renal
- ASSAY DETAILS: NCI tumour cell line growth inhibition, 48 h

Some solved cases for reference:
>>> result("O=[N+]([O-])c1ccc2nc(/C=C(\\O)c3ccc(F)cc3)c(/C=C(\\O)c3ccc(F)cc3)nc2c1")
"40.7 µM"
>>> result("CSC1=C(c2ccc(Cl)cc2)SC(N2CCCCC2)N1c1ccc([N+](=O)[O-])cc1 (centres undefined)")
"> 100 µM"
>>> result("CCC(=O)O[C@H]1CC[C@H]2[C@@H]3CCC4=C/C(=N/NC(=O)c5cccc6c(=O)c7ccccc7[nH]c56)CC[C@]4(C)[C@H]3CC[C@]12C")
"> 25 µM"

// moving on: another record for TGI
Query string: Identify measured TGI obtained with RXF 393 renal for `C[Si](C)(OCCS(=O)(=O)O)C1S(=O)(=O)OCCOS1(=O)=O` .
Result string: > 100 µM

###

- Tested on: UACC-62 melanoma
- ASSAY DETAILS: NCI tumour cell line growth inhibition, 48 h
MEASURE NAME: TGI

Example cases with answers are listed next.
>>> result("N#Cc1c(NC(=S)NC(=O)c2ccccc2)nc2c(c1-c1ccccc1)CCCC2")
"> 100 µM"
>>> result("O=C1/C(=C/c2ccc(O)cc2)COc2ccc(-c3ccccc3)cc21")
"25.6 µM"
>>> result("CCOC(=O)CCC(NC(=O)c1ccc(N2CCN(c3c(C)nc(N)nc3N)CC2)cc1)C(=O)OCC (stereo unspecified)")
"> 100 µM"

Query string: Entry `CC1S(=O)(=O)OCCOS1(=O)=O` needs its TGI filled in; supply it.
Result string: > 83.5 µM

Query string: Report TGI, nothing else, for this compound: `COc1cc(Nc2nc(N[C@H]3CCCC[C@@H]3N)nc3cc[nH]c(=O)c23)cc(OC)c1`
Result string: 19.1 µM

Query string: Look up and report measured TGI for this entry: `O=c1oc2ccccc2n1CCN1CCCCC1`
Result string: > 100 µM

###

- System: OVCAR-5 ovarian
- ASSAY DETAILS: NCI tumour cell line growth inhibition, 48 h
The entries below are paired with their reported TGI.

Consider the reported TGI for these compounds:
>>> result("NNC(=O)CCC(=O)NC1C2CC3CC(C2)CC1C3 (stereo not given)")
"> 100 µM"
>>> result("C#C[C@]1(O)CC[C@H]2[C@@H]3CCc4cc(OC(=O)c5cccc6cc7ccccc7nc56)ccc4[C@H]3CC[C@@]21C")
"> 100 µM"
>>> result("CC/C=C\\C/C=C\\C/C=C\\CCCCCCCC(=O)OCC")
"> 100 µM"

Query string: Return reported TGI for target or system OVCAR-5 ovarian, item N#CC1(C#N)NC(c2ccsc2)C(C#N)(C#N)NC1c1ccsc1 (stereo not given) .
Result string: > 100 µM

Query string: Provide TGI, system OVCAR-5 ovarian, entry `Cc1cc2c3ccccc3n(C)c2c2c1C(=O)C=CC2=O`
Result string: 35.4 µM

Query string: Answer briefly: TGI recorded on OVCAR-5 ovarian for `c1cc2c(c(-c3c4ccccc4nc4ccccc34)c1)CC1(CC2)OCCO1`
Result string: > 100 µM

Query string: Provide TGI, tested on OVCAR-5 ovarian, for `CC(C)(C)c1ccc(S(=O)(=O)N[C@H]2CC[C@H]3[C@@H]4CCc5cc(OS(=O)(=O)O)ccc5[C@H]4CC[C@]23C)cc1` .
Result string: 3.63 µM

Query string: Fill: TGI (OVCAR-5 ovarian) for this compound `Fc1ccc2[nH]c3c(NCCCN4CCOCC4)ncnc3c2c1`
Result string: > 100 µM

Query string: For OVCAR-5 ovarian, give TGI of the listed compound: COc1ccc(CC2NC(=O)/C=C/CC(C(C)C3OC3c3ccccc3)OC(=O)C(CC(C)C)OC(=O)C(C)CNC2=O)cc1Cl (stereo not given)
Result string: > 0.1 µM

Query string: // output TGI; input CC[C@H]1OC([C@H](O)C/C=C\C#C[Si](C)(C)C)C/C=C\C[C@H]1O[Si](C)(C)C(C)(C)C (stereo not given in full) ; system OVCAR-5 ovarian
Result string: > 100 µM

Query string: Jot down TGI (OVCAR-5 ovarian) of `CC1(C)N=C(N)N=C(N)N1c1cccc(OCCOc2ccc([N+](=O)[O-])cc2)c1` .
Result string: > 100 µM

Query string: Please look at O=C(CN1CCN(c2ccccc2)CC1)N1CCc2c([nH]c3ccccc23)C1c1cccnc1 (stereo not given) and tell me its recorded TGI on OVCAR-5 ovarian.
Result string: > 100 µM

Query string: Output reported TGI of the compound `COC(=O)c1cc(C#Cc2cc(OC)ccc2OC)ccc1OC` on OVCAR-5 ovarian.
Result string: > 100 µM

Query string: State TGI (OVCAR-5 ovarian) of COc1cccc(NC(=O)CC(=O)N2N=C(C)C(N=Nc3ccc(S(=O)(=O)c4ccc(N=NC5C(=O)N(C(=O)CC(=O)Nc6cccc(OC)c6)N=C5C)cc4)cc3)C2=O)c1 (stereo not given) .
Result string: > 100 µM
